Numbers sourced from PubChem BioAssay (NCI).

# Test system: UO-31 renal
# Protocol: NCI tumour cell line growth inhibition, 48 h

>  <Compound>
COc1ccc2c(c1)C(c1cc(OC)c3c(c1)OCO3)C1=C(COC1=O)N2 (centres undefined)

>  <GI50>
5050 nM

$$$$
>  <Compound>
Cc1ccccc1C(C(=O)NC1CCCCC1)N(C(=O)CNc1ccc(C#N)cc1)c1cccc(F)c1 (centres undefined)

>  <GI50>
> 93500 nM

$$$$
>  <Compound>
CN(C)CCOc1ccccc1NC1=C(Cl)C(=O)C(Nc2ccccc2OCCN(C)C)=C(Cl)C1=O

>  <GI50>
735 nM

$$$$
>  <Compound>
C/C=C(\C)C(=O)O[C@H]1C=CC(=O)O[C@H]1COC(=O)[C@H](C)O

>  <GI50>
9790 nM

$$$$
>  <Compound>
O=C1c2c(Cl)c(Cl)c(Cl)c(Cl)c2C(=O)C2(Cl)CC=CCC12Cl (centres undefined)

>  <GI50>
1710 nM

$$$$
>  <Compound>
COc1cc(C2CC(=O)Nc3c2c(C)nn3-c2nc3ccccc3[nH]2)cc(OC)c1O (centres undefined)

>  <GI50>
2490 nM

$$$$
>  <Compound>
C=CC(=O)Nc1cccc(Oc2nc(Nc3ccc(N4CCN(C)CC4)cc3OC)ncc2Cl)c1

>  <GI50>
1030 nM

$$$$
>  <Compound>
N#CC1=C(N)Oc2c(sc3c(Br)cccc23)C1c1ccc(Cl)cc1 (centres undefined)

>  <GI50>
614 nM

$$$$
>  <Compound>
O=C1c2cc(F)ccc2-c2c1c1ccc([N+](=O)[O-])cc1c(=O)n2CCCBr

>  <GI50>
13900 nM

$$$$
>  <Compound>
COc1cc2c(c(OC)c1OC)-c1c(c3ccc([N+](=O)[O-])cc3c(=O)n1CCCN)C2=O

>  <GI50>
892 nM

$$$$
>  <Compound>
CCNCCNc1cc(-c2ccc(C(F)(F)F)cc2)c(C#N)c2nc3cc(Cl)c(Cl)cc3n12

>  <GI50>
1650 nM

$$$$
>  <Compound>
Cn1c(=O)c(Oc2ccc(F)cc2F)cc2cnc(NC3CCOCC3)nc21

>  <GI50>
8060 nM

$$$$
>  <Compound>
COc1cc(CCNC(=O)OC(C)(C)C)c2c(c1OC)SSSSS2

>  <GI50>
2180 nM

$$$$
>  <Compound>
CN(C)C=Nc1c(I)cc(I)c(CCC(=O)O)c1I

>  <GI50>
> 100000 nM

$$$$
